Test system: 786-0 renal
Assay summary: NCI tumour cell line growth inhibition, 48 h
Measured endpoint: GI50

Asked: State GI50 on 786-0 renal. Entry: "O=c1cc2oc3cc(O)c(O)cc3c(-c3ccccc3O)c-2cc1O"
Given back: 6.32 µM

Asked: Provide the reported GI50 (system: 786-0 renal) for "COc1cc(CNCCCN2C(=O)c3ccc4c5c(ccc(c35)C2=O)C(=O)N(CCCNCc2cc(OC)c(OC)c(OC)c2)C4=O)cc(OC)c1OC"
Given back: 0.944 µM

Asked: Report GI50 on 786-0 renal for this entry: CC(C)=CCc1cc(O)cc2c1OC(C=C(C)C)C1=C2C(=O)C2=C(NCCS2(=O)=O)C1=O (centres undefined)
Given back: 2.93 µM

Asked: // fetch GI50 for "CCCCCCC[CH2][Sn]1([CH2]CCCCCCC)[O]C(=O)c2cccnc2[S]1" ; system: 786-0 renal
Given back: > 100 µM
